- Assay name: Pharmacokinetic analysis in mice: plasma and brain levels after oral dose
- Assay type: in vivo, C57BL/6 mice
- Measurement parameters: male, C57BL/6, mouse, 10 mg/kg, 10 mg/kg PO, Brain AUC(0-2h)/Plasma AUC(0-2h) or Brain Cmax/Plasma Cmax, read-out: ratio of brain/plasma concentration (B/P)
Readout name: Kp

Answered examples (2):
CN1C(=O)c2c(nn(Cc3ccc(C(F)(F)F)cc3)c2Nc2ccccc2)N2C1=N[C@@H]1CCC[C@@H]12 [reference compound]	4.5 to 4.8
CN1C(=O)c2c(nn(Cc3ccc(S(N)(=O)=O)cc3)c2Nc2ccc(F)cc2)N2CC(C)(C)N=C12	< 0.05

Turning now to a further record.
Data request: Need Kp of `CN1C(=O)c2c(nn(Cc3ccncc3)c2Nc2ccc(F)cc2)N2CC(C)(C)N=C12` , thanks.
Data returned: ≤ 0.1
